- target system: T1, fHbp mutant 0014 (Neisseria meningitidis, fHbp v1.1 mutant, point mutant)
- T1 chain: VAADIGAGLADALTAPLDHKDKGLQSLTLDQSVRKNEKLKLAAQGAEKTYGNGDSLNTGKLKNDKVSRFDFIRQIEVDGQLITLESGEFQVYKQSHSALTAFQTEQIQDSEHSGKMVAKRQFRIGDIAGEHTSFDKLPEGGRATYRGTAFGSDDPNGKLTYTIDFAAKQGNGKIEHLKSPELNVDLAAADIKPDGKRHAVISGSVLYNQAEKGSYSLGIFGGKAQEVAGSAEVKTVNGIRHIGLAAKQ
- test description: BLI
- recorded conditions: both partners purified
pKd: −log10 of the molar value.
Some binders, each annotated with its measured pKd.
quantity kind: pKd

[
  {
    "binder": "mAb JAR5 (mouse) (antibody, V domains shown, source: Expi293, purified (MabSelect SuRe, SEC); copies: 2 + 2) VH: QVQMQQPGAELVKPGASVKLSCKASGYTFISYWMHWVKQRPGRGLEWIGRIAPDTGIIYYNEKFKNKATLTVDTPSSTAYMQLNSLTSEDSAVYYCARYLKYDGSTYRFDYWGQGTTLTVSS VL: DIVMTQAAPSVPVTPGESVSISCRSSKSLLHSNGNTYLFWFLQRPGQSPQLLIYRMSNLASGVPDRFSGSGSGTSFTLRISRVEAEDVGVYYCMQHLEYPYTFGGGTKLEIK",
    "comparison symbol": "=",
    "reported measurement": 9.68
  },
  {
    "binder": "mAb 12C1 (mouse) (antibody, V domains shown, source: Expi293, purified (MabSelect SuRe, SEC); copies: 2 + 2) VH: QVQLQESGPELVKPGASVKISCKASGYSFSDYNMSWVKQSNGKSLEWIGIIDPKYGTINYNQKFKGKATLTVDQASSTAYMQLNSLTSEDSAVYYCVRDYYGSSYFDYWGQGTTLTVSS VL: DIVLTQSPSSIYASLGERVTLTCKASQDIHNYLNWFQQKPGKSPKTLIYRANRLVDGVPSRFSGGGSGQDYSLTISSLEFEDIGIYYCLQYDEFPPTFGGGTRLEIK",
    "comparison symbol": ">",
    "reported measurement": 12.00
  },
  {
    "binder": "mAb 1E6 (human) (antibody, V domains shown, source: Expi293, purified (MabSelect SuRe, SEC); copies: 2 + 2) VH: EVQLVQSGAEVKKPGSSVKVSCKASGGTVIDYPITWVRQAPGQGLEWVGGFVPLFRTSNYGQKFQGRVTITADKSTSTASMELNSLTSEDTAIYYCARGDTAMGPFDYWGQGTLVTVSS VL: SYVLTQPPSLSVAPGKTATLTCGGNNIAGKTVHWYQQRPGQAPVLVISYDSDRPSGIPERFSGSNSANTATLTISRVEAGDEADYYCQVWDRNSDHWVFGGGTKLTVL",
    "comparison symbol": "=",
    "reported measurement": 8.68
  },
  {
    "binder": "mAb 4B3 (human) (antibody, V domains shown, also called 4B3-2; source: Expi293, purified (MabSelect SuRe, SEC); copies: 2 + 2) VH: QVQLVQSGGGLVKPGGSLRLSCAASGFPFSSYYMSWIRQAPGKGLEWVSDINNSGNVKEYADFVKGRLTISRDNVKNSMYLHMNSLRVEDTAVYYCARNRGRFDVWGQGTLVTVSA VL: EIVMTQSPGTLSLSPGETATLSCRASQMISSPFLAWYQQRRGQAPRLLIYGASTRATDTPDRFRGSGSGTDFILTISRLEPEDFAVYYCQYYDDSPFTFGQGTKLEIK",
    "comparison symbol": "=",
    "reported measurement": 8.80
  }
]
